- Species: Homo sapiens
- testDescription: Binding affinity to human HSP90B 5'-FAM-GGGCGGGCCAAAGGGAAGGGG-TAMRA-3' at 2 uM after 3 hrs by HT-FRET assay
Satisfied if ΔTm is below 30 °C. Not satisfied if not; exact matches included in Not satisfied.

See these solved cases before continuing.
>>> classlabel("COCCCNc1cc2c3c(c(NCCCOC)cc4c3c1C(=O)N(CCCN1CCN(C)CC1)C4=O)C(=O)N(CCCN1CCN(C)CC1)C2=O")
"Satisfied"
>>> classlabel("CN1CCN(CCCN2C(=O)c3cc(NCC4CCOCC4)c4c5c(cc(NCC6CCOCC6)c(c35)C2=O)C(=O)N(CCCN2CCN(C)CC2)C4=O)CC1")
"Satisfied"
>>> classlabel("CN1CCN(CCN2C(=O)c3cc(NCCCN4CCOCC4)c4c5c(cc(NCCCN6CCOCC6)c(c35)C2=O)C(=O)N(CCN2CCN(C)CC2)C4=O)CC1")
"Not satisfied"
>>> classlabel("CN1CCN(CCCN2C(=O)c3cc(NC[C@@H]4CCCO4)c4c5c(cc(NC[C@H]6CCCO6)c(c35)C2=O)C(=O)N(CCCN2CCN(C)CC2)C4=O)CC1")
"Satisfied"

Criterion: ΔTm strictly below 30 °C. Is it met by CN1CCN(CCCN2C(=O)c3cc(NCCCN4CCOCC4)c4c5c(cc(NCCCN6CCOCC6)c(c35)C2=O)C(=O)N(CCCN2CCN(C)CC2)C4=O)CC1 ?
Not satisfied
